Recorded values, source patent US10238631B2.

# Test system: LPS-induced nitric oxide (NO) production in RAW 264.7 cells
# Procedure Details: Nitric oxide production in LPS-stimulated macrophages (Griess)
# Type: cell-based, mouse
# Condition Description: Mus musculus; LPS-stimulated RAW264.7, nitrite 24 h after LPS
Hi there, I'd appreciate the recorded IC50 for every entry that follows.

What the record says about C=C1C(=O)OC2CC3=C[C@@H](C/C(C)=C/C(OC(=O)CCc4cccc5ccccc45)[C@H]12)OC3=O (stereo partly drawn) : IC50 is > 10 µM

What the record says about C=C1C(=O)OC2CC3=C[C@@H](C/C(C)=C/C(OC(=O)C(Cl)Cl)[C@H]12)OC3=O (stereo partly drawn) : IC50 is > 10 µM

What the record says about C=C1C(=O)OC2CC3=C[C@@H](C/C(C)=C/[C@@H](OC(=O)Cc4coc5ccccc45)[C@H]12)OC3=O (stereo partly drawn) : IC50 is > 10 µM
